tgt: human 5-HT6R (Homo sapiens, UniProt P50406)
Construct: expressed in transfected cells
Sequence (P50406 whole entry): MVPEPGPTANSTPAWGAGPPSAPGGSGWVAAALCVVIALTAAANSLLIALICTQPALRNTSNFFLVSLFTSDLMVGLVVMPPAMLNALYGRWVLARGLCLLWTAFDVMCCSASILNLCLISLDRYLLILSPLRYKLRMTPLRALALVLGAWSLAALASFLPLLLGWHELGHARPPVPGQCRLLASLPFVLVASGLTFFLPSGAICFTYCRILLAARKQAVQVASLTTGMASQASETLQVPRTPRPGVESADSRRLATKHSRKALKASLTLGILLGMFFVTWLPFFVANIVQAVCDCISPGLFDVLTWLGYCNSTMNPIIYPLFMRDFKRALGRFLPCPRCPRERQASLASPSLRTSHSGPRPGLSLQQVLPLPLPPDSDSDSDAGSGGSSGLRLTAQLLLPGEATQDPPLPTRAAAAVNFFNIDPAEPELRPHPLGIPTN
test method notes: [3H]-LSD radioligand binding assay at 5-HT6R in HEK293 cell membranes
protocol conditions: HEK293 cells with stable expression of human 5-HT6R, mean of at least three experiments (SEM ≤ 18%)
Method: The biological evaluation was initiated by assessing the affinity of the compounds for 5-HT6R in the [^3H]-LSD radioligand binding assay. Experiments were performed in a stable HEK293 cell line expressing the human 5-HT6R [10]. […] Experiments were performed in Chinese hamster ovary (CHO) cells with the stable expression of human D3R (Eurofins, Celle-L’Evescault, France). […]
pKi: −log10 of the molar value.
measured parameter: pKi

Solved cases below.
[
  {
    "structure smiles": "O=S(=O)(c1cccc(Cl)c1)n1ccc2c(NC[C@@H]3CCCN3CCO)nc3ccccc3c21",
    "numeric result": 7.11
  },
  {
    "structure smiles": "O=S(=O)(c1cccc(Cl)c1)n1ccc2c(N[C@H]3CCN(CCC(F)(F)F)C3)nc3ccccc3c21",
    "numeric result": 6.25
  },
  {
    "structure smiles": "CCN1CC[C@H](CNc2nc3ccccc3c3c2ccn3S(=O)(=O)c2cccc(Cl)c2)C1",
    "numeric result": 7.42
  },
  {
    "structure smiles": "CCN1CC[C@@H](CNc2nc3ccccc3c3c2ccn3S(=O)(=O)c2cccc(Cl)c2)C1",
    "numeric result": 7.19
  }
]

a = C[C@@H](O)CN1CC[C@H](Nc2nc3ccccc3c3c2ccn3S(=O)(=O)c2cccc(Cl)c2)C1
b = CC(C)CN1CCC[C@H]1CNc1nc2ccccc2c2c1ccn2S(=O)(=O)c1cccc(Cl)c1
Q: Of a and b , which carries the smaller reported pKi figure? To answer, give the label that identifies your chosen option.
A: b
(b: 7.19, a: 8.22)
